# Assay text: Caco-2 assay (permeability PappAB, PappBA, efflux ratio)
# Assay type: in vitro ADME
# Experimental conditions: human, Caco-2; efflux ratio PappBA/PappAB; 10 μM test compound, pH 7.4; read-out: Caco ER
Endpoint label: efflux ratio at 90 min, 10 μM

Example entries begin here.
structure_notation=CO[C@@H]1C[C@@H]([C@H](C)Oc2cc(-c3ccn(C)n3)nc(-c3onc4c3CCC[C@@]43CCCc4sc(N)c(C#N)c43)n2)N(C)C1 value=1.5
structure_notation=CO[C@@H]1C[C@@H]([C@H](C)Oc2cc(-n3ccnc3)nc(-c3noc4c3CCC[C@@]43CCCc4sc(N)c(C#N)c43)n2)N(C)C1 value=1.2
structure_notation=C[C@H](Oc1cc(N2CCN(C)C3(CC3)C2)nc(-c2onc3c2CCC[C@@]32CCCc3sc(N)c(C#N)c32)n1)[C@@H]1C[C@@H](F)CN1C value=0.6
structure_notation=C[C@H](Oc1cc(-n2cc(C3CC3)nn2)nc(-c2noc3c2CCC[C@@]32CCCc3sc(N)c(C#N)c32)n1)[C@@H]1CCCN1C value=0.7
structure_notation=CO[C@@H]1C[C@@H]([C@H](C)Oc2cc(-c3cnn(C)n3)nc(-c3noc4c3CCC[C@@]43CCCc4sc(N)c(C#N)c43)n2)N(C)C1 value=0.3
structure_notation=CO[C@H]1CCN(C)[C@@H]1[C@H](C)Oc1cc(N2CCNC3(CC3)C2)nc(-c2onc3c2CCC[C@@]32CCCc3sc(N)c(C#N)c32)n1 value=2.9
structure_notation=C[C@H](Oc1cc(N2CCN(C)C3(COC3)C2)nc(-c2noc3c2CCC[C@@]32CCCc3sc(N)c(C#N)c32)n1)[C@@H]1CCCN1C value=21.4
structure_notation=C[C@H](Oc1cc(N2CCN(C)CC2)nc(-c2noc3c2CCC[C@@]32CCCc3sc(N)c(C#N)c32)n1)[C@@H]1CCCN1C value=5.4

(P) C[C@@H]1CN(c2cc(O[C@@H](C)[C@@H]3CCCN3C)nc(-c3noc4c3CCC[C@@]43CCCc4sc(N)c(C#N)c43)n2)CCN1
(Q) C[C@H](Oc1cc(-n2cc(Cn3ccnc3)nn2)nc(-c2noc3c2CCC[C@@]32CCCc3sc(N)c(C#N)c32)n1)[C@@H]1CCCN1C
QUERY: Please tell me which of the two, P or Q , has the higher reported efflux ratio at 90 min, 10 μM value. Choose, then provide that item's label.
RESULT: P
(P: 47.6, Q: 30.9)

Values compiled from patent US20240174690A1.
